From: paper PMC11676817

- Test system: Toxoplasma gondii tachyzoites of the RH strain
- method description: microbe, parasite or virus in culture
- Type: cell-based
- measurement conditions: Toxoplasma gondii; 125 nM, 24 h of treatment; read-out: Proliferation index (%)
quantity name: activity at 0.125 µM (%)
Give just the numeric value; % need not be written.

Use the examples below as a reference point.
>  <molecule>
CC[C@@H](C(=O)[C@@H](C)[C@@H](O)[C@H](C)[C@@H]1O[C@@H]([C@@H](CC)C(=O)O)CC[C@@H]1C)[C@H]1O[C@]2(C=C[C@@H](O)[C@]3(CC[C@@](C)([C@H]4CC[C@](O)(CC)[C@H](C)O4)O3)O2)[C@H](C)C[C@@H]1C

>  <output unit>
%

>  <activity at 0.125 µM>
14.4

$$$$
>  <molecule>
CCc1nc(N)nc(N)c1-c1ccc(Cl)cc1

>  <output unit>
%

>  <activity at 0.125 µM>
87.3

$$$$
>  <molecule>
COc1c(C)c2c(c(O)c1C/C=C(\C)CCC(=O)O)C(=O)OC2

>  <output unit>
%

>  <activity at 0.125 µM>
61.3

$$$$

Tell us which activity at 0.125 µM value is on record for C[C@@H]1C[C@@H]([C@H](O)CC2CC(=O)NC(=O)C2)C(=O)[C@@H](C)C1 [Cycloheximide]
33

---

- Test system: Toxoplasma gondii tachyzoites of the RH strain
- method description: microbe, parasite or virus in culture
- measurement conditions: NHDF, 168 h, read-out: IC50 (μM) in Tachyzoites, RH strain in NHDF cells, plaque assay, 7 days of treatment
quantity name: IC50 (µM)
API: value field is a number in µM; no unit string.

>  <compound>
CO[C@@H]1[C@H](N(C)C(=O)c2ccccc2)C[C@H]2O[C@]1(C)n1c3ccccc3c3c4c(c5c6ccccc6n2c5c31)C(=O)NC4 [Midostaurin]

>  <IC50 (µM)>
0.08

$$$$

Identify measured IC50 corresponding to CC[C@@H](C(=O)[C@@H](C)[C@@H](O)[C@H](C)[C@@H]1O[C@@H]([C@@H](CC)C(=O)O)CC[C@@H]1C)[C@H]1O[C@]2(C=C[C@@H](O)[C@]3(CC[C@@](C)([C@H]4CC[C@](O)(CC)[C@H](C)O4)O3)O2)[C@H](C)C[C@@H]1C [Salinomycin]
0.07

Quote IC50 reported for O=c1[nH]c2ccccc2n1C1CCN(CCCC(c2ccc(F)cc2)c2ccc(F)cc2)CC1 [Pimozide] please.
0.64

Identify measured IC50 corresponding to COc1cc2c3cc1Oc1c(OC)c(OC)cc4c1[C@@H](Cc1ccc(O)c(c1)Oc1ccc(cc1)C[C@@H]3N(C)CC2)N(C)CC4 [Berbamine]
0.31

---

- method description: in vitro
- measurement conditions: human
quantity name: CC50 at 7 days (µM)
Reply with just the number (in µM).

>  <compound>
CC[C@@H](C(=O)[C@@H](C)[C@@H](O)[C@H](C)[C@@H]1O[C@@H]([C@@H](CC)C(=O)O)CC[C@@H]1C)[C@H]1O[C@]2(C=C[C@@H](O)[C@]3(CC[C@@](C)([C@H]4CC[C@](O)(CC)[C@H](C)O4)O3)O2)[C@H](C)C[C@@H]1C [Salinomycin]

>  <value measured>
1.14

$$$$
>  <compound>
C[C@@H]1C[C@@H]([C@H](O)CC2CC(=O)NC(=O)C2)C(=O)[C@@H](C)C1 [Cycloheximide]

>  <value measured>
6.08

$$$$

Please find the next compound below.
Look up and state reported CC50 at 7 days for Cc1cccc(/C=N/Nc2cc(N3CCOCC3)nc(OCCc3ccccn3)n2)c1 [Apilimod]
2.12
